Below, each of the compounds is paired with its reported selectivity ratio value.
# TEST_METHOD_NOTES: Selectivity index, ratio of CC50 for human TZM-bl cells to IC50 for HIV-1 3B infected in human TZM-bl cells
# Format: toxicity, cell-based
# CONDITION_SET: TZM-bl cells, read-out: Ratio CC50/IC50

>  <COMPOUND>
Cc1cc2c(c(O)c1-c1c(C)cc3c(c1O)/C(=C/NC(C)S(=O)(=O)[O-])C(=O)C(O)=C3C(C)C)/C(=C/NC(C)S(=O)(=O)[O-])C(=O)C(O)=C2C(C)C.[Na+].[Na+] (single isomer, unassigned; (-))

>  <selectivity ratio>
32.3

$$$$
>  <COMPOUND>
Cc1cc2c(c(O)c1-c1c(C)cc3c(c1O)/C(=C/NC(C)C(=O)NCC(=O)O)C(=O)C(O)=C3C(C)C)/C(=C/NC(C)C(=O)NCC(=O)O)C(=O)C(O)=C2C(C)C (single isomer, unassigned; (-))

>  <selectivity ratio>
25.8

$$$$
>  <COMPOUND>
Cc1cc2c(c(O)c1-c1c(C)cc3c(c1O)/C(=C/N[C@@H](Cc1ccccc1)C(=O)O)C(=O)C(O)=C3C(C)C)/C(=C/N[C@@H](Cc1ccccc1)C(=O)O)C(=O)C(O)=C2C(C)C (stereo in doubt; (-)-13a)

>  <selectivity ratio>
5.39

$$$$
